Assay: Volume of distribution in elimination phase in male CD-1 mouse at 5 mg/kg, iv measured for 480 mins by LC-MS/MS analysis
Type: ADME, organism-based
Settings: in vivo, read-out: Vz
readout_label: Vd (L/kg)

C#C[C@H](O)C#Cc1ccc(CCCCCCCC)cc1 = 8.4

====

Test: Volume of distribution in elimination phase in female CD-1 mouse at 5 mg/kg, po measured for 480 mins by LC-MS/MS analysis
Assay type: ADME, organism-based
Conditions: in vivo, read-out: Vz/F
readout_label: Vd/F

C#C[C@H](O)C#Cc1ccc(CCCCCCCC)cc1 = 69.4 L/kg

====

Experiment: Cmax in female CD-1 mouse at 5 mg/kg, sc measured for 480 mins by LC-MS/MS analysis
Assay type: ADME, organism-based
Design: dose 5 mg/kg, time 480 min, route sc
Conditions: in vivo
readout_label: Cmax (nM)

C#C[C@H](O)C#Cc1ccc(CCCCCCCC)cc1 = 200
